Molecular target: CB1 (Homo sapiens (Human), UniProt P21554)
Sequence (P21554 whole entry): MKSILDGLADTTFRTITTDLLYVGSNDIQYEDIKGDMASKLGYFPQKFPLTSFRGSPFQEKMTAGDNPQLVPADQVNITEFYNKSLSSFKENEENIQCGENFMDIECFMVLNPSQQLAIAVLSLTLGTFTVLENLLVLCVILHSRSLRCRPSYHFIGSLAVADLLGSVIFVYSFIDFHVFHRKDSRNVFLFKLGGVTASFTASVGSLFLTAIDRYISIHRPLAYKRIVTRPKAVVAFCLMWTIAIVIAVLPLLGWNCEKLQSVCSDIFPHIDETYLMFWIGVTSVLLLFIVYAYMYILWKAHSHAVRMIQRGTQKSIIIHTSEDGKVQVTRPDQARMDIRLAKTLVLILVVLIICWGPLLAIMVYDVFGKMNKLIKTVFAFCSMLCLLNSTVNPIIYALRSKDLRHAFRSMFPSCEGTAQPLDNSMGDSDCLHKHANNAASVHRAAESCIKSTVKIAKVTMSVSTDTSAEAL
Assay: CB1 antagonism assay, green (β-Arrestin) NOMAD biosensor, MPXNomad-CB1 HEK293 cells
Type: cell-based
ENDPOINT NAME: pIC50
Numbers only, as −log10 of the molar value.

Given the entry COC(=O)[C@@H](C)CS/C(=N\S(=O)(=O)c1ccc(C(F)(F)F)cc1)N1CC(c2ccccc2)C(c2ccc(Cl)cc2)=N1 (stereo partly shown) [Compound 3A] , report its measured pIC50.
10.40

----------
Biological target: CB1 (Homo sapiens (Human))
Assay: CB1 antagonism assay, green (β-Arrestin) NOMAD biosensor, MPXNomad-CB1 HEK293 cells
Assay type: cell-based
Settings: MPXNomad-CB1 HEK293 cells, CB1 antagonism; read-out: β-Arrestin IC50
ENDPOINT NAME: pIC50
Answers are plain numbers, as −log10 of the molar value.

Given the entry N#CCCCSC(=NS(=O)(=O)c1ccc(C(F)(F)F)cc1)N1CC(c2ccccc2)C(c2ccc(Cl)cc2)=N1 (stereo not shown) , report its measured pIC50.
5.74
